# test: Plasma pharmacokinetics and brain distribution after single IV, IP and oral administration
# Format: in vivo
# conditions: male, C57BL/6, mouse, in vivo, iv, 2 mg/kg, Mean plasma conc.
Counter-ions that a name gives are not always drawn.
quantity_kind: concentration at 0.35 h (ng/mL)
Numbers only, in ng/mL.

| compound | quantity_kind | observed |
| --- | --- | --- |
| [2H]C([2H])([2H])Oc1ccc(Nc2nc(-c3c(C)nc4ccccn34)cs2)cc1 [Compound 15, hydrochloride] | concentration at 0.35 h | 149 |

Determine its reported concentration at 0.35 h: [2H]C1([2H])Oc2ccc(Nc3nc(-c4c(C)nc5ccccn45)cs3)cc2O1 [Compound 17, hydrochloride]
44.8

Provenance of the data: patent US12215106B2
